Reported values of protein stability index for individual entries
B1: POMT2 (parent)
chain: YHEAPMTRKHYQVTGYGINGTGDS

Variants of: B1
Assay: protein stability index of a GFP-peptide fusion (GPS, HEK-293T) (PSI 1-6); higher = more stable;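 note: lentivirally expressed fusions sorted by FACS into six bins by GFP to DsRed ratio, PSI derived from sequencing read proportions per bin multiplied by bin number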
Conditions: c terminus: a fixed tail appended
Respond using a number only.

# example entries with known answers
[[record]]
entry_sequence = "YHEAPMTRKHYQVTGYGINGTGKS [D23K]"
numeric_readout = 1.99

[[record]]
entry_sequence = "YWEAPMTRKHYQVTGYGINGTGDS [H2W]"
numeric_readout = 2.72


q: Item YHEAPMTRKHYQVTGYGINGTKDS [G22K] has what recorded protein stability index?
a: 2.29

q: How about this variant: YHEAPMTRKHYQVTGYGLNGTGDS [I18L]
a: 2.64

q: How about this variant: YFEAPMTRKHYQVTGYGINGTGDS [H2F]
a: 3.38

q: How about this variant: VHEAPMTRKHYQVTGYGINGTGDS [Y1V]
a: 3.49

q: How about this variant: YHEAPMTRKHYQVTGYGINGFGDS [T21F]
a: 2.11

q: How about this variant: YHEAPMTRKHNQVTGYGINGTGDS [Y11N]
a: 3.15

q: How about this variant: YHEAPMIRKHYQVTGYGINGTGDS [T7I]
a: 2.45

q: How about this variant: YHEAPMTRKHYQVTGYGINGQGDS [T21Q]
a: 2.12

q: How about this variant: YHEAPYTRKHYQVTGYGINGTGDS [M6Y]
a: 1.98

q: How about this variant: YHRAPMTRKHYQVTGYGINGTGDS [E3R]
a: 1.47

q: How about this variant: YHEAPMLRKHYQVTGYGINGTGDS [T7L]
a: 1.79

q: How about this variant: YHEAPMTRKHYQFTGYGINGTGDS [V13F]
a: 2.08

q: How about this variant: YHEAPMTRKHYQVTGYGINGHGDS [T21H]
a: 2.23

q: How about this variant: YHEAPMTRKHYQVTGYKINGTGDS [G17K]
a: 2.13

q: How about this variant: YHEAPMTRKHYQVWGYGINGTGDS [T14W]
a: 1.41
